B1: CPEB3 Ribozyme (parent)
chain: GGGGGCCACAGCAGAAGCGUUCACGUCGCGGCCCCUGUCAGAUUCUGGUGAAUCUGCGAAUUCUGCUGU

- Variants of: B1
- ASSAY SUMMARY: self-cleavage, relative activity (ratio to wild type); higher = more cleavage; co-transcriptional
Listed here are variants together with their documented self-cleavage.
Response field accepts a number only; no unit should be typed.

- MUTATIONS: "G5A G41C"
  METRIC NAME: "self-cleavage"
  NUMERIC READOUT: 0.359

Could you now look at the following variant, please?
**Query** Value lookup for self-cleavage; key = A59C C66A
**Result** 0.365
